# System: SW-620 colon
# assay.details: NCI tumour cell line growth inhibition, 48 h
measured.property: TGI

Previously resolved entries follow.
compound	TGI
CC(C)(C)OC(=O)NCCCCCCCCn1c2c(c3ccccc3c1=O)C(=O)c1ccccc1-2	> 50 µM
C/C=C(\C)C(=O)O[C@@H]1C(O)[C@H]2OC(COC(=O)CCC(=O)CCCCCC[C@H](CCCCC)O[C@@H]3OC(C)[C@H](OC(C)=O)C(O)[C@H]3O2)[C@H]1OC(=O)/C=C/c1ccccc1 (some centres undefined)	> 60 µM
Nc1ccn([C@H]2C[C@@H](O)[C@@H](CO)S2)c(=O)n1	> 100 µM
C=C(CN(CC(=C)C(=O)c1ccccc1)C(C)(C)C)C(=O)c1ccccc1	9.91 µM
NC(=O)c1csc(C2C=CC(CO)O2)n1 (centres undefined)	> 100 µM

Q. Fill blank: measured TGI of the compound "Cc1ccc(S(=O)(=O)CNC(=S)CCCC(=S)NCS(=O)(=O)c2ccc(C)cc2)cc1" is ____.
A. > 100 µM

Q. GET /values?readout=TGI&item= "N=c1c2c3n(c4c(=O)n(-c5ccccc5)c(=S)n(c(=O)n1-c1ccccc1)c24)CCCCC3"
A. > 100 µM

Q. So what does the record say about TGI for Cc1c(O)c(=O)ccn1C1OC(CO)C(O)C1O (centres undefined) ?
A. > 100 µM

Q. # TGI lookup, item CN1N=C2c3ccccc3CC[C@H]2C1c1ccccc1 (some centres undefined)
A. > 100 µM

Q. What does the record list as TGI for "CC[C@@]1(O)C(=O)OCc2c1cc1n(c2=O)Cc2cc3cc(OC)ccc3nc2-1" ?
A. 4.79 µM

Q. Look up TGI for this compound: "Nc1c(C(=O)c2cccc(OCCN3CCOCC3)c2)cnn1-c1ccc(F)cc1"
A. > 25 µM

Q. GET /values?readout=TGI&item= Oc1ccc(-c2nc3cc(C(F)(F)F)ccc3n2CC2CCCN3CCCCC23)cc1 (centres undefined)
A. 28.4 µM

Q. Please report the recorded TGI for COC1(OC)N=C(N)C2(C#N)C(C)CC(=O)N(N(C)C)C12C#N (centres undefined) .
A. > 100 µM

Q. I would be grateful if you could share the reported TGI for CCOC(=O)CCC(NC(=O)c1ccc(CNc2nc3cc(N)cc(N)c3nc2-c2ccccc2)cc1)C(=O)OCC (centres undefined) .
A. > 100 µM

Q. TGI for "COc1ccc(-c2cc(-c3ccc(Nc4ccnc5cc(C(F)(F)F)ccc45)cc3)[nH]c(=O)c2C#N)c2ccccc12" ?
A. > 100 µM

Q. Data request, read-out TGI, for CCOC(OCC)C(CC)[Se]c1ccccc1[N+](=O)[O-] (centres undefined)
A. > 100 µM

Q. GET /values?readout=TGI&item= "COc1nn(Cc2ccccc2F)c2ccc([N+](=O)[O-])cc12"
A. > 100 µM

Q. Endpoint output: TGI of FC(F)(F)c1ccc2c(c1)nc(Cc1ccccc1)n2C[C@@H]1CCCN2CCCCC12 (some centres undefined) . Value?
A. > 65.7 µM

Q. Entry CC12O[C@H](c3ccccc3)[C@H](c3ccccc3)N1C(=O)C1(C(=O)OCc3ccccc3)CC12 (some centres undefined) : reported TGI = ?
A. > 100 µM

###

# Test system: SNB-75 CNS
# assay.details: NCI tumour cell line growth inhibition, 48 h
Param threshold (3 µM) applies to TGI; output class 1 when value >= threshold, class 0 when value < threshold.

Sample answers from the record:
> print(dat)
                                   compound    label
1  CC(=O)O[C@H]1[C@@H]2[C@@H]3[C@@H](C[C@H]1C)[C@@H](C)CO[C@@]1(C)CC/C=C(/C)C[C@@H]2O[C@@H]31  class 1
2  CC[N+](CC)=c1ccc2nc3c(cc(NCc4ccccc4)c4ccccc43)oc-2c1  class 0
3  COc1c2ccccc2c(O)c2c(=O)c(C(=O)O)cn(C)c12  class 1
4    O=c1c2cc(Br)ccc2oc2nc3n(c(=O)c12)CCCS3  class 1
5    N#C/C(=C\c1ccc(Br)cc1)n1nnc2cccc(F)c21  class 0
6  C=CC1OC(CCCOC(=O)C(C)(C)C)O[C@@H]1CC (stereo partly specified)  class 1

Q. Hello, I need to know if O=S(=O)(NC(=S)Nc1ccccc1)c1ccc(N2N=C3c4ccccc4CC3C2c2cccs2)cc1 (stereo unspecified) has measured TGI not below 3 µM. Thanks!
A. class 1

Q. Reported TGI reaches at least 3 µM for "Oc1cc(Cl)cc2cc(Br)cnc12" ?
A. class 1

Q. # bool: TGI of "N[C@@H]1c2c(Br)sc(Br)c2[C@H](O)[C@@H]1O" >= 3 µM
A. class 1

Q. Could you tell me if the measured TGI of "Cn1ccc(=Nc2ccc(NC(=O)c3ccc(N=c4ccn(C)c5ccc([N+](=O)[O-])cc45)cc3)cc2)cc1" reaches 3 µM or more?
A. class 1

Q. Determine whether this compound has TGI no lower than 3 µM: "Nc1c(C(=O)c2cccc(OCCN3CCOCC3)c2)cnn1-c1ccc(F)cc1"
A. class 1

Q. Record "Cn1c(-c2csc(-c3ccc(Cl)cc3)n2)n[nH]c1=S" ; criterion: TGI no lower than 3 µM. Met?
A. class 1

Q. Answer whether TGI of "OCCSCCCSCCO" is greater than or equal to 3 µM.
A. class 1

Q. Hi team, for CCOC(=O)CCC(C(=O)OCC)n1nc2ccc(Nc3c(C)[n+]([O-])c4cc(Cl)ccc4[n+]3[O-])cc2n1 (stereo unspecified) , is the recorded TGI at or above 3 µM?
A. class 1

Q. Tell me whether TGI is at least 3 µM here: "c1ccc2c(c1)CCc1c-2n(CCN2CCCCC2)c2ccccc12"
A. class 1

Q. Record "N#C/C(=C/c1cccnc1)C(=O)c1ccccc1" ; criterion: TGI no lower than 3 µM. Met?
A. class 1

Q. Textbook exercise: given the entry "CCCCCCCCOc1ccc(/C=N/Nc2cc(C)nc3ccc(Cl)cc23)cc1" , state whether its TGI is greater than or equal to 3 µM.
A. class 1

Entry source: PubChem BioAssay (NCI)
